Below are AC50 values measured for Sodium-dependent noradrenaline transporter (Homo sapiens).
readout label: AC50

INSERT INTO results (compound, readout_label, endpoint_value) VALUES
  ('CCSc1ccc2c(c1)N(CCCN1CCN(C)CC1)c1ccccc1S2', 'AC50', '1.65 µM'),
  ('CCOC(=O)[C@H](CCc1ccccc1)N[C@@H](C)C(=O)N1Cc2cc(OC)c(OC)cc2C[C@H]1C(=O)O', 'AC50', '> 30 µM'),
  ('CN(C)CCN(Cc1ccc(Cl)cc1)c1ccccn1', 'AC50', '19.4 µM'),
  ('CC(c1ccc(Cl)c(Cl)c1)N1N=C(N)CC1=O (stereo not given)', 'AC50', '> 30 µM'),
  ('Cc1onc(-c2c(Cl)cccc2Cl)c1C(=O)N[C@@H]1C(=O)N2[C@@H]1SC(C)(C)[C@@H]2C(=O)O', 'AC50', '> 30 µM'),
  ('O=C(O)c1cc(=O)c2ccccc2o1', 'AC50', '> 30 µM'),
  ('NC(=O)c1nc(F)c[nH]c1=O', 'AC50', '> 30 µM'),
  ('NCCc1ccc(O)cc1', 'AC50', '22.2 µM'),
  ('CC(C)[N+](C)(CCOC(=O)C1c2ccccc2Oc2ccccc21)C(C)C', 'AC50', '> 30 µM'),
  ('C1CNCCN1', 'AC50', '> 30 µM');

The measured values listed here are drawn from ChEMBL document CHEMBL5291721.
